# maps each entry to its protein stability index
MEASUREMENT PROTOCOL: protein stability index of a GFP-peptide fusion (yeast GPS) (PSI 1-4); higher = more stable; sorted into four equal gates, so the index is relative within each strain
PARTICULARS: ubr1∆
MEASUREMENT LABEL: protein stability index

| BIOPOLYMER SEQUENCE | MEASUREMENT LABEL | READOUT VALUE |
| --- | --- | --- |
| PAGTSLFGNNAGNTTTG [YGL172W/NUP49] | protein stability index | 3.24 |
| DWNKRFSHLAGGKIINK [BRR2] | protein stability index | 3 |
| LRRVNARYVIATSTKVS [RPL6A] | protein stability index | 1.14 |
| TFLKYFGWLLSDNSVSV [IRR1] | protein stability index | 2.66 |
| NCKKKKKRKKKNKSAID [RMP1] | protein stability index | 3.37 |
| LPKVRIRTRRAAELLDK [DIS3] | protein stability index | 1.28 |
| HLIKCFFKITLQRASSK [ITC1] | protein stability index | 1.08 |
| YLAKLSKQLSLEEKKKR [IRR1] | protein stability index | 2.86 |
| ISMLVTQLQRGGTSDMN [CSI1] | protein stability index | 2.53 |
| VEDVSQNAADLQQICRV [RPL9A] | protein stability index | 3.03 |
| PCLSRSCTKCPQIVVPD [DIS3] | protein stability index | 2.57 |
| MVHLYSIVEECDARFDE [RPC17] | protein stability index | 2.74 |
| SYTDAQDKSKKIMNVTT [YMR129W/POM152] | protein stability index | 3.03 |
| QQQQQQQNPKFLQSQRQ [SWI1] | protein stability index | 3.25 |
